Experiment: Pyridostigmine level in rat sera after intramuscular dose, by RIA
Assay type: in vivo
Details: rat, serum, im, 1 mg/kg, 15 min; 1.0 mg/kg i.m.; male rats; read-out: Pyridostigmine in the Rat Sera, Mean ± S.D.
Test Readout: concentration at 0.25 h (ng/mL)

[
  {
    "Smiles Repr": "CN(C)C(=O)Oc1ccc[n+](C)c1",
    "Test Readout": "concentration at 0.25 h",
    "Observed Measurement": 387
  }
]

----------
Experiment: Pyridostigmine level in rat sera after intramuscular dose, by RIA
Format: in vivo
Conditions: rat, serum, im, 1 mg/kg, 5 min; 1.0 mg/kg i.m.; male rats; read-out: Pyridostigmine in the Rat Sera, Mean ± S.D.
Test Readout: concentration at 5 min (ng/mL)

[
  {
    "Smiles Repr": "CN(C)C(=O)Oc1ccc[n+](C)c1",
    "Observed Measurement": 575
  }
]

----------
Assay: Pyridostigmine level in rat sera after intramuscular dose, by RIA
Format: in vivo
Details: rat, serum, im, 1 mg/kg, 3 hr; 1.0 mg/kg i.m.; male rats #1, #2 in order; read-out: Pyridostigmine in the Rat Sera, individual animals

[
  {
    "Smiles Repr": "CN(C)C(=O)Oc1ccc[n+](C)c1",
    "Unit Of Measurement": "ng/mL",
    "concentration at 3 h": 12
  }
]

----------
Test: Pyridostigmine level in rat sera after intramuscular dose, by RIA
Format: in vivo
Conditions: rat, serum, im, 1 mg/kg, 5 min; 1.0 mg/kg i.m.; male rats #1, #2 in order; read-out: Pyridostigmine in the Rat Sera, individual animals
Test Readout: concentration at 5 min (ng/mL)

[
  {
    "Molecule": "CN(C)C(=O)Oc1ccc[n+](C)c1 [Pyridostigmine]",
    "Test Readout": "concentration at 5 min",
    "Observed Measurement": 600
  }
]

----------
Test: Pyridostigmine level in rat sera after intramuscular dose, by RIA
Type: in vivo
Details: rat, serum, im, 1 mg/kg, 60 min; 1.0 mg/kg i.m.; male rats #1, #2, #3 in order; read-out: Pyridostigmine in the Rat Sera, individual animals

[
  {
    "Smiles Repr": "CN(C)C(=O)Oc1ccc[n+](C)c1",
    "Unit Of Measurement": "ng/mL",
    "concentration at 1 h": 140
  }
]

----------
Experiment: Pyridostigmine level in rat sera after intramuscular dose, by RIA
Assay type: in vivo
Details: rat, serum, im, 1 mg/kg, 3 hr; 1.0 mg/kg i.m.; male rats; read-out: Pyridostigmine in the Rat Sera, Mean ± S.D.

[
  {
    "Compound": "CN(C)C(=O)Oc1ccc[n+](C)c1 [Pyridostigmine]",
    "concentration at 3 h, ng/mL": 13
  }
]

----------
Target: Pyridostigmine Antibody
Experiment: Cross-reactivity with pyridostigmine antibody in RIA (competition with labeled pyridostigmine)
Assay type: binding, rabbit (male New Zealand white)
Details: labeled pyridostigmine 5000 DPM; maximum tested 500 ng
The entries below are paired with their reported IC 50 (50% inhibition of binding of 3H-pyridostigmine to the antibody).
Test Readout: IC 50 (50% inhibition of binding of 3H-pyridostigmine to the antibody)

[
  {
    "Compound": "CN(C)C(=O)Oc1cccc([N+](C)(C)C)c1",
    "Observed Measurement": "> 500 ng"
  },
  {
    "Compound": "CNC(=O)Oc1ccc2c(c1)[C@]1(C)CCN(C)[C@@H]1N2C",
    "Observed Measurement": "> 500 ng"
  },
  {
    "Compound": "C[n+]1cccc(O)c1 [3-Hydroxy-N-methyl-pyridostigmine]",
    "Observed Measurement": "> 500 ng"
  },
  {
    "Compound": "C[n+]1ccccc1/C=N/O [Pralidoxime Chloride]",
    "Observed Measurement": "> 500 ng"
  },
  {
    "Compound": "CN(C)C(=O)Oc1ccc[n+](C)c1",
    "Observed Measurement": "4 ng"
  }
]

Hey, just so you know, these numbers are from patent US5268308A.
